Hello, the source for this data is ChEMBL document CHEMBL1201862, in case you need it.

Listed here are compounds together with their documented GI50.
test system: CCRF-CEM; test: NCI tumour cell line growth inhibition, 48 h
Activity calls are given as the source filed them. Rule as the data show it: active = GI50 up to about 1.1 µM and inactive = higher.

Tell me the measured GI50 of COc1cc(NS(C)(=O)=O)ccc1NCc1c2ccccc2nc2ccccc12 , please. 4.18 µM (inactive)

Next:
Tell me the measured GI50 of CCn1c(SCC(=O)NNC(=S)Nc2ccc([N+](=O)[O-])cc2)nc2ccccc2c1=O , please. 37.2 µM (inactive)

Tell me the measured GI50 of CC(C)N1[C@@H]2CCCC[C@H]2N(C(C)C)[PH]1=O , please. > 100 µM (inactive)

###

system: COLO 205; experiment: NCI tumour cell line growth inhibition, 48 h
Active and inactive are the calls of the source. Rule as the data show it: active = GI50 up to about 1.1 µM and inactive = higher.
Reply using exactly one outcome from yes (active), no (inactive)

// known answers, use as guide
// outcome(item) with item = CN1C[C@@H]2CCCN2P1Oc1cccc2cccnc12 (some centres undefined) no

// outcome(item) with item = Nc1cccc2cc(S(=O)(=O)Nc3ccc(C(=O)O)cc3)ccc12 no

// outcome(item) with item = Cc1c2ccncc2c(C)c2c1[nH]c1ccc(OCCN(C)C)cc12 yes

// outcome(item) with item = CN(C)NC(=S)NC12CC3CC(CC(C3)C1)C2 no

// outcome(item) with item = NS(=O)(=O)c1ccc(/N=N/c2ccc(O)c(C(=O)O)c2)cc1 [SALAZOSULFAMIDE] no

--- query ---
// outcome(item) with item = CC[n+]1c(-c2ccccc2)c2cc(N)ccc2c2ccc(N)cc21 [HOMIDIUM BROMIDE] no
